src = paper PMC6718336

Observed Kd for Hsp90β NTD (Homo sapiens), reported per entry below.
Give your result in µM as a bare value.

Nc1ncnc2c1ncn2[C@@H]1O[C@H](COP(=O)(O)OP(=O)(O)O)[C@@H](O)[C@H]1O [ADP]	12.4

Consider now this further compound.
[in] # return Kd of Nc1ncnc2c1ncn2[C@@H]1O[C@H](COP(=O)(O)OP(=O)(O)OP(=O)(O)O)[C@@H](O)[C@H]1O [ATP] (system: Hsp90β NTD (Homo sapiens))
Sequence (P08238 1-221 limits assumed): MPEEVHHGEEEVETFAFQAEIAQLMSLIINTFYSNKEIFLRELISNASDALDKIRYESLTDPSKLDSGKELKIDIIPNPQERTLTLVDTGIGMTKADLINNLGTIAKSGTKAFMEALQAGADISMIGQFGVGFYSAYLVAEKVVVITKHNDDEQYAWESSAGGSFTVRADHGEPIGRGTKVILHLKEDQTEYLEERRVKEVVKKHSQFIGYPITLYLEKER
[out] 281

* * *

In this section, each of the compounds is paired with its reported pKd.
target: Hsp90α S52A (1-236) (Homo sapiens, UniProt P07900, S52A); assay: ITC binding to Hsp90α S52A mutant NTD; conditions: ITC, 298 K
pKd field: float, defined as -log10 of concentration (mol/L).

Nc1ncnc2c1ncn2[C@@H]1O[C@H](COP(=O)(O)OP(=O)(O)O)[C@@H](O)[C@H]1O [ADP]	5.04

[in] # return pKd of Nc1ncnc2c1ncn2[C@@H]1O[C@H](COP(=O)(O)OP(=O)(O)OP(=O)(O)O)[C@@H](O)[C@H]1O [ATP] (system: Hsp90α S52A (1-236) (Homo sapiens, UniProt P07900, S52A))
[out] 3.62
